Tested On: recombinant guanylate cyclase reporter cell line (Rattus norvegicus, UniProt P19686+P20595)
Construct: expressed in transfected cells; host or cells: recombinant reporter cell line
Sequence (P19686 whole entry): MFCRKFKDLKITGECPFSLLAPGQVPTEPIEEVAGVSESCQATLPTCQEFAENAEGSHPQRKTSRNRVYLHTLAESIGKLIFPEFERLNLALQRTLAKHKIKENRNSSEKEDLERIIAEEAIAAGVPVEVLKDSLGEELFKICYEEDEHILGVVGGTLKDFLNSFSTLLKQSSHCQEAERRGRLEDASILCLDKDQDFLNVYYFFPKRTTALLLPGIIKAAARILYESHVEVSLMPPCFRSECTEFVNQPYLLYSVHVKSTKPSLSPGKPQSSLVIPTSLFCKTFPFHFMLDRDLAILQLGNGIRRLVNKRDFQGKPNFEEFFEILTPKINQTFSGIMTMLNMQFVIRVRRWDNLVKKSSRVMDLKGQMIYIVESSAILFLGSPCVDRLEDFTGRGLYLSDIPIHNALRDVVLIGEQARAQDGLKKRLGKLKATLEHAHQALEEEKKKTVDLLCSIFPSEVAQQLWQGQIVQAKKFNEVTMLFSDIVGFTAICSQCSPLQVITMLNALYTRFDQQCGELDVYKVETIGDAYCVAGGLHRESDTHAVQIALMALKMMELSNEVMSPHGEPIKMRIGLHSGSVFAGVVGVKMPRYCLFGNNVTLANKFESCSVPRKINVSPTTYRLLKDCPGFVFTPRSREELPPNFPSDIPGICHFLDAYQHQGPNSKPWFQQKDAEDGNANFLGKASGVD
Sequence (P20595 whole entry): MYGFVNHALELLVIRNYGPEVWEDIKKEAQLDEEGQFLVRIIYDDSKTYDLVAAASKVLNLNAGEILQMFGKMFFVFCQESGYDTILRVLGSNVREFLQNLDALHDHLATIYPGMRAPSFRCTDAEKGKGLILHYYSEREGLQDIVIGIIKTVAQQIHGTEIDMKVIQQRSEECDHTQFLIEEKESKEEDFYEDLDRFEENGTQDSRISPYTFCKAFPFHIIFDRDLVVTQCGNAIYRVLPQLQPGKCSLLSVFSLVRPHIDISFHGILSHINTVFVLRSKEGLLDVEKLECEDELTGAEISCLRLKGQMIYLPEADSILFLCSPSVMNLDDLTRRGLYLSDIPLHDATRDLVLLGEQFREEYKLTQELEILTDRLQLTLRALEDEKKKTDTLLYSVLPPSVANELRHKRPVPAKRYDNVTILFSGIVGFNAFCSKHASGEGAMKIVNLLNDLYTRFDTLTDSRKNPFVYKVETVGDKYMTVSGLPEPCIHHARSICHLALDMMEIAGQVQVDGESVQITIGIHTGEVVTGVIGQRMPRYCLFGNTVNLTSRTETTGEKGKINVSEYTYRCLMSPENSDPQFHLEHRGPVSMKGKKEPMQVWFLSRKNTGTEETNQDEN
Protocol Details: Action on recombinant guanylate cyclase reporter cell line
Format: cell-based
Details: in some cases mean values from individual determinations
Readout Label: MEC (minimal effective concentration)

1) CCC(C)(N)CNC(=O)c1c(C)nc2c(OCc3c(F)ccc(C4CC4)c3F)cc(C)cn12 (stereo not shown) :: 3.00 µM
2) Cc1nc2c(OCc3ccccc3F)cccn2c1C(=O)NC(CN)c1ccc(F)c(F)c1 (stereo not shown) :: 1.00 µM
3) CCCC(C)(N)CNC(=O)c1c(C)nc2c(OCc3c(F)cccc3F)cc(Cl)cn12 (single isomer, unassigned; enantiomer a) [Example 245] :: 0.10 µM
4) Cc1cc(OCc2c(F)cccc2F)c2nc(C)c(C(=O)NC(CN)c3ccc([N+](=O)[O-])cc3)n2c1 (racemic) :: 0.30 µM
5) Cc1cc(OCc2c(F)cccc2F)c2nc(C)c(C(=O)NCC(C)(N)C(F)(F)F)n2c1 (single isomer, unassigned) [Example 240] :: 0.30 µM
6) Cc1cc(OCc2c(F)cccc2F)c2nc(C)c(C(=O)NC(CN)c3cccc(OCCO)c3)n2c1 (racemic) :: 1.00 µM
7) Cc1nc2c(OCc3c(F)cccc3F)cc(Cl)cn2c1C(=O)NCCN1CC(N2CCCC2)C1 :: 3.00 µM
8) Cc1nc2c(OCc3c(F)cccc3F)cccn2c1C(=O)NC(CN)c1ccc(F)cc1F (stereo not shown) :: 0.30 µM
9) Cc1nc2c(OCc3c(F)cccc3F)cc(Cl)cn2c1C(=O)NCCN :: 1.00 µM
10) Cc1cc(OCc2c(F)cccc2F)c2nc(C)c(C(=O)NCC(C)(N)Cc3nc4ccccc4s3)n2c1 (racemic) :: 0.30 µM
11) CCCC[C@H](CN(CC)CC)NC(=O)c1c(C)nc2c(OCc3c(F)cccc3F)cccn12 :: 1.00 µM
12) Cc1nc2c(OCc3c(F)cccc3F)cccn2c1C(=O)NC1CCNc2ccc(F)cc21 (single isomer, unassigned; ent-8) [Example 106] :: 0.03 µM
13) Cc1nc2c(OCc3c(F)cccc3F)cccn2c1C(=O)NCC(N)C(F)(F)F (single isomer, unassigned) [Example 208] :: 0.30 µM
14) Cc1nc2c(OCc3c(F)cccc3F)cccn2c1C(=O)NC1CCNc2ccc(F)cc21 (single isomer, unassigned; ent-8) [Example 105] :: 0.30 µM
15) CCCC(C)(N)CNC(=O)c1c(C)nc2c(OCc3cccc(C)c3F)cc(C)cn12 (racemic) :: 0.30 µM
16) CCCC(C)(N)CNC(=O)c1c(C)nc2c(OCc3c(F)ccc(F)c3F)cc(C)cn12 (single isomer, unassigned) [Example 304] :: 0.10 µM
17) Cc1nc2c(OCc3c(F)cccc3F)cc(Cl)cn2c1C(=O)NCC(C)(N)C(F)(F)F (racemic) [Example 236] :: 0.30 µM
18) CCC(C)(N)CNC(=O)c1c(C)nc2c(OCc3c(F)cccc3F)cc(C(F)F)cn12 (single isomer, unassigned; enantiomer a) [Example 287] :: 0.3 µM
19) Cc1cc(OCc2c(F)cccc2F)c2nc(C)c(C(=O)NC3CCC3(C)N)n2c1 (single isomer, unassigned; enantiomer a) [Example 332] :: 1.00 µM
20) COCC(N)CNC(=O)c1c(C)nc2c(OCc3c(F)cccc3F)cc(C)cn12 (single isomer, unassigned) [Example 242] :: 0.30 µM
21) Cc1nc2c(OCc3c(F)cccc3F)cccn2c1C(=O)NC(CN)COc1ccc(F)cc1 (racemic) :: 1.00 µM
22) CCC(C)(N)CNC(=O)c1c(C)nc2c(OCc3c(F)ccc(OC)c3F)cc(C)cn12 (stereo not shown) :: 1.00 µM
23) CCCC(C)(N)CNC(=O)c1c(C)nc2c(OCc3ccccc3)cc(C)cn12 (racemic) :: 1.00 µM
24) Cc1nc2c(OCc3c(F)cccc3F)cccn2c1C(=O)NC1CC2CCCC(C1)N2C (stereo not shown) :: 0.10 µM
25) Cc1cc(OCc2c(F)cccc2F)c2nc(C)c(C(=O)NCCN3CCN(C)CC3)n2c1 :: 1.00 µM
26) CCC(C)(N)CNC(=O)c1c(C)nc2c(OCc3c(F)cccc3F)cc(C)cn12.Cl (single isomer, unassigned; enantiomer a) :: 0.03 µM
27) Cc1nc2c(OCc3c(F)cccc3F)cccn2c1C(=O)NCCN1CCC(F)(F)C1 :: 0.30 µM
28) Cc1nc2c(OCC3CCCCC3)cccn2c1C(=O)NC(CN)c1ccc(F)cc1F (stereo not shown) :: 1.00 µM
